Entries annotated with measured GI50
test system: HT-29; test: NCI tumour cell line growth inhibition, 48 h
Active and inactive are the calls of the source. Rule as the data show it: active = GI50 up to about 1.1 µM and inactive = higher.

Study these solved cases before continuing.
Molecule: CC/C(Cl)=N\OC(=O)Nc1ccc(OC)cc1
GI50: 6.05 µM (inactive)
--
Molecule: C[N+](C)([O-])C12CC3CC(CC(C3)C1)C2
GI50: 35.6 µM (inactive)

GI50 reported for this molecule O=C1CC2CC3OC3[C@H]3c4cc5c(cc4C(=O)N1C23)OCO5 (stereo partly specified) : > 100 µM (inactive)

Just so you know, measured GI50 for O=NC1C(Cl)C2CC1C1C(Br)C(Br)CC21 (stereo unspecified) came out at > 100 µM (inactive)

Consider CS(=O)(=O)OC1CCC2(C#N)CCC1C2=O (stereo unspecified) . Its measured GI50 is > 100 µM (inactive)

Reported GI50 of "CCN(CC)/C(Sc1ccccc1)=C(\C(Cl)=C(Cl)Cl)[N+](=O)[O-]" : 21.5 µM (inactive)

Values from ChEMBL document CHEMBL1201862
